Listed here: items and their measured Human AP % Max Inhibition, hemolysis assay, 5% NHS.
- TGT: human C5 (human, UniProt P01031 19-1676)
- PROTOCOL DESCRIPTION: cell-based or functional assay
Just the number in %, nothing appended.

Worked examples, 3 binders total:
BINDER: H4H12166P4 (antibody, human IgG4, V domains shown, histidine-mutated CDR variant of H4H12166P; human IgG4 (S108P)) VH: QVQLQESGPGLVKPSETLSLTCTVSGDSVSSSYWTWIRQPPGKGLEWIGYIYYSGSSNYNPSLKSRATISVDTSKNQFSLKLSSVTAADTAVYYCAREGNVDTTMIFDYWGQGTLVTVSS VL: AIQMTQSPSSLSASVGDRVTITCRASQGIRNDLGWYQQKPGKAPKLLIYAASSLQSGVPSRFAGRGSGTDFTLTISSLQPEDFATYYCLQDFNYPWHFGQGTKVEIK
UNITS TEXT: %
ENDPOINT RESULT: 77
--
BINDER: H4H12166P6 (antibody, human IgG4, V domains shown, histidine-mutated CDR variant of H4H12166P; human IgG4 (S108P)) VH: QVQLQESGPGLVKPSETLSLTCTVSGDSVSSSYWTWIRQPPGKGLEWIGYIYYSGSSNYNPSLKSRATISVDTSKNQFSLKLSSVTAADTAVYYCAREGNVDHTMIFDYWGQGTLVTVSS VL: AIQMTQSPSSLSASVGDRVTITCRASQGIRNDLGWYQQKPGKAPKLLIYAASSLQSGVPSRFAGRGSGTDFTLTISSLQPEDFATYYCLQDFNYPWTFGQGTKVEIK
UNITS TEXT: %
ENDPOINT RESULT: 82.4
--
BINDER: H4H12166P7 (antibody, human IgG4, V domains shown, histidine-mutated CDR variant of H4H12166P; human IgG4 (S108P)) VH: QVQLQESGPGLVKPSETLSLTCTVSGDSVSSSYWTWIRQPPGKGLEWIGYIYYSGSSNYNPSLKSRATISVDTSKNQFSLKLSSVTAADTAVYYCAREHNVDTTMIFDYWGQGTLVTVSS VL: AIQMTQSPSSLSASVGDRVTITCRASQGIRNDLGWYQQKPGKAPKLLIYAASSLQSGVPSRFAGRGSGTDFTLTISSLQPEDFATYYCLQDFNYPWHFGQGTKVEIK
UNITS TEXT: %
ENDPOINT RESULT: 83.2

Exercise: Which Human AP % Max Inhibition, hemolysis assay, 5% NHS reading was recorded for the binder H4H12166P9 (antibody, human IgG4, V domains shown, histidine-mutated CDR variant of H4H12166P; human IgG4 (S108P)) VH: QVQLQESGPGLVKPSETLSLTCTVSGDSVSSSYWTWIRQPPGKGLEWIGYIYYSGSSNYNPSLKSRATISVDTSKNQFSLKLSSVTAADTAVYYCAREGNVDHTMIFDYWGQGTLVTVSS VL: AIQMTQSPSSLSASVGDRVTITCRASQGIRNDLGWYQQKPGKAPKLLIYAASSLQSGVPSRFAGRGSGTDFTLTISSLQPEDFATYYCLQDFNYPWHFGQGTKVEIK ?
Key: 72.2

Exercise: Which Human AP % Max Inhibition, hemolysis assay, 5% NHS reading was recorded for the binder H4H12166P8 (antibody, human IgG4, V domains shown, histidine-mutated CDR variant of H4H12166P; human IgG4 (S108P)) VH: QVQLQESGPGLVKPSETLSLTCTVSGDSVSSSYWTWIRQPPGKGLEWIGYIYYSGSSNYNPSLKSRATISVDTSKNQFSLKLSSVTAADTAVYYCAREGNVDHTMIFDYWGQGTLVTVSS VL: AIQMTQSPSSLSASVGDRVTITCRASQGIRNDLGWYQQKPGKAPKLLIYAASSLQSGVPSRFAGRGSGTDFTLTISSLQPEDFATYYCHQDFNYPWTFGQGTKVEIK ?
Key: 73.3

Exercise: Which Human AP % Max Inhibition, hemolysis assay, 5% NHS reading was recorded for the binder H4H12166P5 (antibody, human IgG4, V domains shown, histidine-mutated CDR variant of H4H12166P; human IgG4 (S108P)) VH: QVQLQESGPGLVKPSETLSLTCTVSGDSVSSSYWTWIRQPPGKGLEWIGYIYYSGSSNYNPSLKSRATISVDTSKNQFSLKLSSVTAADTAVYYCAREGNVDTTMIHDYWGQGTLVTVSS VL: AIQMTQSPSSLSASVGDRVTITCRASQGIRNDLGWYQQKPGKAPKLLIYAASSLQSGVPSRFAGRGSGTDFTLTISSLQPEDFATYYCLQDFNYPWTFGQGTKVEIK ?
Key: 77.7

Exercise: Which Human AP % Max Inhibition, hemolysis assay, 5% NHS reading was recorded for the binder H4H12166P2 (antibody, human IgG4, V domains shown, histidine-mutated CDR variant of H4H12166P; human IgG4 (S108P)) VH: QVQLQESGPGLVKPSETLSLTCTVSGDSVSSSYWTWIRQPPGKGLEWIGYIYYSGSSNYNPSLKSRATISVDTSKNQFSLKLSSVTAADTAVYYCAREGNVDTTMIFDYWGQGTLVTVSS VL: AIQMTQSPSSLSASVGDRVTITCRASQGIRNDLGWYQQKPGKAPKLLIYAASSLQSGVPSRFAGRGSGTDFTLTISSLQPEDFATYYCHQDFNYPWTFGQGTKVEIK ?
Key: 81.3
